system: Phakopsora pachyrhizi (F129L); experiment: Protective control of soybean rust on soybeans (PHAKPA P2); format: in vivo; conditions: protective P2, 16 ppm, soybean rust F129L
Lab note: cut-off is 20%. Strictly less in % PHAKPA (F129L) Disease level P2 at 16 ppm is condition met. Exactly 20% or more is condition not met.

Asked: Say whether its % PHAKPA (F129L) Disease level P2 at 16 ppm is strictly beneath 20%. Entry: CNC(=O)/C(=N/OC)c1cccc(C)c1CO/N=C(\C)c1ccc(C)c(C(F)(F)F)c1 [compound 230]
Given back: condition met

Asked: Say whether its % PHAKPA (F129L) Disease level P2 at 16 ppm is strictly beneath 20%. Entry: CO/C=C(/C(=O)OC)c1cccc(C)c1CO/N=C(\C)c1ccc(C)cc1C(F)(F)F [compound 446]
Given back: condition met

Asked: Say whether its % PHAKPA (F129L) Disease level P2 at 16 ppm is strictly beneath 20%. Entry: CNC(=O)/C(=N/OC)c1cccc(C)c1CO/N=C(\C)c1ccc(OC(F)(F)F)cc1 [compound 136]
Given back: condition met

Asked: Say whether its % PHAKPA (F129L) Disease level P2 at 16 ppm is strictly beneath 20%. Entry: CNC(=O)/C(=N/OC)c1cccc(C)c1CO/N=C(\C)c1ccc(C#N)c(C(F)(F)F)c1 [compound 17]
Given back: condition not met

Asked: Say whether its % PHAKPA (F129L) Disease level P2 at 16 ppm is strictly beneath 20%. Entry: CO/C=C(/C(=O)OC)c1cccc(C)c1CO/N=C(\C)c1ccc(F)c(F)c1OC(F)(F)F [compound 450]
Given back: condition met

Asked: Say whether its % PHAKPA (F129L) Disease level P2 at 16 ppm is strictly beneath 20%. Entry: C#Cc1cccc(/C(C)=N/OCc2c(C)cccc2/C(=N\OC)C(=O)OC)c1 [compound 53]
Given back: condition met

Asked: Say whether its % PHAKPA (F129L) Disease level P2 at 16 ppm is strictly beneath 20%. Entry: CNC(=O)/C(=N/OC)c1cccc(C)c1CO/N=C(\C)c1cccc(OC)c1 [compound 79]
Given back: condition met

Asked: Say whether its % PHAKPA (F129L) Disease level P2 at 16 ppm is strictly beneath 20%. Entry: CO/N=C(/C(=O)OC)c1cccc(C)c1CO/N=C(\C)c1cccc(CC2COC2)c1 [compound 160]
Given back: condition not met

Asked: Say whether its % PHAKPA (F129L) Disease level P2 at 16 ppm is strictly beneath 20%. Entry: CCC/C(=N\OCc1c(C)cccc1/C(=N\OC)C(=O)NC)c1ccccc1 [compound 388]
Given back: condition met

Asked: Say whether its % PHAKPA (F129L) Disease level P2 at 16 ppm is strictly beneath 20%. Entry: CO/N=C(/C(=O)OC)c1cccc(C)c1CO/N=C(\C)c1cccc(-c2ccccc2)c1 [compound 97]
Given back: condition met

Asked: Say whether its % PHAKPA (F129L) Disease level P2 at 16 ppm is strictly beneath 20%. Entry: CNC(=O)/C(=N/OC)c1cccc(C)c1CO/N=C(\C)c1cccc(CC2COC2)c1 [compound 161]
Given back: condition not met

Asked: Say whether its % PHAKPA (F129L) Disease level P2 at 16 ppm is strictly beneath 20%. Entry: CNC(=O)/C(=N/OC)c1cccc(C)c1CO/N=C(\C)c1c(F)cc(F)cc1OC(F)(F)F [compound 344]
Given back: condition met

Asked: Say whether its % PHAKPA (F129L) Disease level P2 at 16 ppm is strictly beneath 20%. Entry: CNC(=O)/C(=N/OC)c1cccc(C)c1CO/N=C(\C)c1cccc(N2CC(F)(F)C2)c1 [Ex. 282]
Given back: condition met

Asked: Say whether its % PHAKPA (F129L) Disease level P2 at 16 ppm is strictly beneath 20%. Entry: CO/N=C(/C(=O)OC)c1cccc(C)c1CO/N=C(\C)c1ccccc1C1CC1 [compound 217]
Given back: condition not met

Asked: Say whether its % PHAKPA (F129L) Disease level P2 at 16 ppm is strictly beneath 20%. Entry: CNC(=O)/C(=N/OC)c1cccc(C)c1CO/N=C(\C)c1ccc(/C(C)=N\OC)cc1C(F)(F)F [compound 420]
Given back: condition met

Asked: Say whether its % PHAKPA (F129L) Disease level P2 at 16 ppm is strictly beneath 20%. Entry: CNC(=O)/C(=N/OC)c1cccc(C)c1CO/N=C(\C)c1ccccc1CC(C)C [compound 221]
Given back: condition not met

Asked: Say whether its % PHAKPA (F129L) Disease level P2 at 16 ppm is strictly beneath 20%. Entry: CNC(=O)/C(=N/OC)c1cccc(C)c1CO/N=C(\C)c1ccc(F)c(C(F)(F)F)c1 [compound 47]
Given back: condition met

Asked: Say whether its % PHAKPA (F129L) Disease level P2 at 16 ppm is strictly beneath 20%. Entry: CNC(=O)/C(=N/OC)c1cccc(C)c1CO/N=C(\C)c1ccc(F)cc1F [compound 267]
Given back: condition met

Asked: Say whether its % PHAKPA (F129L) Disease level P2 at 16 ppm is strictly beneath 20%. Entry: CO/N=C(/C(=O)OC)c1cccc(C)c1CO/N=C(\C)c1c(F)ccc(F)c1OC(F)(F)F [compound 366]
Given back: condition met

Asked: Say whether its % PHAKPA (F129L) Disease level P2 at 16 ppm is strictly beneath 20%. Entry: CNC(=O)/C(=N/OC)c1cccc(C)c1CO/N=C(\C)c1ccc(/C(C)=N\OC)cc1OC(F)(F)F [compound 415]
Given back: condition met

Asked: Say whether its % PHAKPA (F129L) Disease level P2 at 16 ppm is strictly beneath 20%. Entry: CCc1cc(/C(C)=N/OCc2c(C)cccc2/C(=N\OC)C(=O)OC)cc(C(F)(F)F)c1 [compound 146]
Given back: condition met

Asked: Say whether its % PHAKPA (F129L) Disease level P2 at 16 ppm is strictly beneath 20%. Entry: CO/N=C(/C(=O)OC)c1cccc(C)c1CO/N=C(\C)c1cccc(Cl)c1C(F)(F)F [compound 421]
Given back: condition not met

Asked: Say whether its % PHAKPA (F129L) Disease level P2 at 16 ppm is strictly beneath 20%. Entry: CNC(=O)/C(=N/OC)c1cccc(C)c1CO/N=C(\C)c1ccc(Cl)c(Cl)c1C(F)(F)F [compound 431]
Given back: condition met

Asked: Say whether its % PHAKPA (F129L) Disease level P2 at 16 ppm is strictly beneath 20%. Entry: CO/N=C(/C(=O)OC)c1cccc(C)c1CO/N=C(\C)c1cccc(OC(F)(F)F)c1 [Ex. 28]
Given back: condition met

Asked: Say whether its % PHAKPA (F129L) Disease level P2 at 16 ppm is strictly beneath 20%. Entry: CNC(=O)/C(=N/OC)c1cccc(C)c1CO/N=C(\C)c1cccc(OC(F)(F)F)c1 [compound 29]
Given back: condition met

Asked: Say whether its % PHAKPA (F129L) Disease level P2 at 16 ppm is strictly beneath 20%. Entry: CNC(=O)/C(=N/OC)c1cccc(C)c1CO/N=C(\C)c1cccc(N2CC(F)(F)C2)c1 [compound 44]
Given back: condition met

Asked: Say whether its % PHAKPA (F129L) Disease level P2 at 16 ppm is strictly beneath 20%. Entry: CNC(=O)/C(=N/OC)c1cccc(C)c1CO/N=C(\C)c1ccc(CC2COC2)cc1 [compound 83]
Given back: condition not met

Asked: Say whether its % PHAKPA (F129L) Disease level P2 at 16 ppm is strictly beneath 20%. Entry: CO/N=C(/C(=O)OC)c1cccc(C)c1CO/N=C(\C)c1cc(Cl)ccc1Cl [compound 117]
Given back: condition met

Asked: Say whether its % PHAKPA (F129L) Disease level P2 at 16 ppm is strictly beneath 20%. Entry: CNC(=O)/C(=N/OC)c1cccc(C)c1CO/N=C(\C)c1cc(C(F)(F)F)cc(F)c1F [compound 197]
Given back: condition met

Asked: Say whether its % PHAKPA (F129L) Disease level P2 at 16 ppm is strictly beneath 20%. Entry: CO/N=C(/C(=O)OC)c1cccc(C)c1CO/N=C(\C)c1c(F)cccc1C(F)(F)F [compound 365]
Given back: condition met

Asked: Say whether its % PHAKPA (F129L) Disease level P2 at 16 ppm is strictly beneath 20%. Entry: CO/N=C(/C(=O)OC)c1cccc(C)c1CO/N=C(\C)c1ccccc1F [Ex. 1]
Given back: condition not met

Asked: Say whether its % PHAKPA (F129L) Disease level P2 at 16 ppm is strictly beneath 20%. Entry: C=Cc1cc(/C(C)=N/OCc2c(C)cccc2/C(=N\OC)C(=O)NC)cc(C(F)(F)F)c1 [compound 152]
Given back: condition met
